Entry source: PubChem BioAssay (NCI)

test system: NCI/ADR-RES ovarian; assay: NCI-60 one-dose screen, 48 h (100 = growth as untreated, 0 = no growth, -100 = all killed); details: 10 µM unless noted
About 83,000 compounds went through this panel and 20% of them were active in at least one assay; those are over-represented in the sample as a whole. Activity calls are given as the source filed them. The calls were made as follows: active = growth percent below 10; inactive = the rest.
quantity measured: growth

Here is how some compounds turned out for growth.
Cn1cc(-c2nnc(N)nc2-c2c[nH]c3ccc(F)cc23)c2cc(Br)ccc21 ... 15.2% (inactive)
CC(C)(C)OC(=O)NCc1ccc(CNc2c([N+](=O)[O-])cnc3ccccc23)cc1 ... 38.2% (inactive)

// moving on: another record for growth
Input: Consider the compound shown here: "Cn1c(SCC(=O)c2ccc(F)cc2)nc2ccccc2c1=O" What is its recorded growth?
Output: 93.6% (inactive)
